Data origin, for the record: patent US8940748B2

pKi: −log10 of the molar value.
These compounds were tested on purified human autoBACE-2 (Homo sapiens (Human), UniProt Q9Y5Z0); pKi is the recorded read-out.
Sequence (Q9Y5Z0 63-473 limits assumed): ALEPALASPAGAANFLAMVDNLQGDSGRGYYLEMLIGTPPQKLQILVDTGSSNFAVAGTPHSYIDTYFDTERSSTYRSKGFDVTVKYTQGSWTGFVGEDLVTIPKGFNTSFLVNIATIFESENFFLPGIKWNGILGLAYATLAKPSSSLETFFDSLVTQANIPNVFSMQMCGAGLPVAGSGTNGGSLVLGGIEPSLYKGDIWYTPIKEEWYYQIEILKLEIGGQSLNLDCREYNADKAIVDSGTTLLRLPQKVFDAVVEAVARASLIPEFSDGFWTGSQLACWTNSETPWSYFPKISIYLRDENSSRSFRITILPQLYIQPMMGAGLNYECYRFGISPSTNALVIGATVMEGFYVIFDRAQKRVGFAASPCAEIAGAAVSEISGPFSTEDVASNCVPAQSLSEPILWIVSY
readout: pKi

// known answers, use as guide
COc1cnc(C(=O)Nc2ccc(F)c([C@]3(C)CS(=O)(=O)N(C)C(=N)N3)c2)cn1 [Example 40ai] = 8.70
CN1C(=N)N[C@](C)(c2cc(NC(=O)c3ccc(C(F)(F)F)cn3)ccc2F)CS1(=O)=O [Example 26] = 8.61

A: COc1cnc(C(=O)Nc2cc(F)c(F)c([C@]3(C)CS(=O)(=O)N(C)C(=N)N3)c2)cn1 [Example 40di]
B: Cc1ccc(C(=O)Nc2ccc(F)c([C@]3(C)CS(=O)(=O)N(C)C(=N)N3)c2)nc1 [Example 35]
C: Cc1cnc(C(=O)Nc2ccc(F)c([C@]3(C)CS(=O)(=O)N(C)C(=N)N3)c2)cn1 [Example 36]
Order by pKi, ascending. In your reply, arrange the labels in the requested order.
C, A, B

###

Target: soluble human BACE1 catalytic domain (Homo sapiens (Human), UniProt P56817)
Sequence (P56817 75-416): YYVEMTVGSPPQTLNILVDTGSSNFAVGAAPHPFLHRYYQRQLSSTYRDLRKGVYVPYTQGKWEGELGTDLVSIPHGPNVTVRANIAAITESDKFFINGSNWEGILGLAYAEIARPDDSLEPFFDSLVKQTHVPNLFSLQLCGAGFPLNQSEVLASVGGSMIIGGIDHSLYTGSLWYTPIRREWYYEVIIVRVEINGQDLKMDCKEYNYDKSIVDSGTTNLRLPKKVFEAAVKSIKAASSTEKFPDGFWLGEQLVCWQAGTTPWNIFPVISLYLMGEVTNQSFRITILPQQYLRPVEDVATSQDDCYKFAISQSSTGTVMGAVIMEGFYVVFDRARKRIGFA
readout: Ki (nM)

// known answers, use as guide
Cc1ccc(C(=O)Nc2ccc(F)c([C@]3(C)CS(=O)(=O)N(C)C(=N)N3)c2)nc1 = 3
CN1C(=N)N[C@](C)(c2cc(NC(=O)c3ccc(Cl)cn3)ccc2F)CS1(=O)=O = 0.949
COc1cnc(C(=O)Nc2cc(F)c(F)c([C@]3(C)CS(=O)(=O)N(C)C(=N)N3)c2)cn1 [Example 40di] = 1.05

P: COc1cnc(C(=O)Nc2ccc(F)c([C@]3(C)CS(=O)(=O)N(C)C(=N)N3)c2)cn1 [Example 40ai]
Q: Cc1cnc(C(=O)Nc2ccc(F)c([C@]3(C)CS(=O)(=O)N(C)C(=N)N3)c2)cn1
Endpoint returns the identifier whose Ki is numerically larger, either P or Q . Kindly give the label for the entry you pick.
Q
(Q: 10 nM, P: 1.64 nM)

###

Test system: P-gp
Assay: Caco-2 bi-directional permeability
Type: in vitro ADME
Conditions: human, Caco-2
readout: efflux ratio at 2 h

CN1C(=N)N[C@](C)(c2cc(-c3ccc(F)c(C#N)c3)cs2)CC1=O [Iminopyrimidinone 46] = 2.6
CN1C(=N)N[C@](C)(c2cc(NC(=O)c3ccc(C(F)(F)F)cn3)ccc2F)CC1=O [Iminopyrimidinone 26] = 11.3
CN1C(=N)N[C@](C)(c2cc(-c3cccc(C#N)c3)cs2)CS1(=O)=O [Example 45] = 1.4
CN1C(=N)N[C@](C)(c2cc(NC(=O)c3ccc(F)cn3)ccc2F)CC1=O [Iminopyrimidinone 25] = 10.6
Cc1ccc(C(=O)Nc2ccc(F)c([C@]3(C)CS(=O)(=O)N(C)C(=N)N3)c2)nc1 [Example 35] = 2.1

P: CN1C(=N)N[C@](C)(c2cc(NC(=O)c3ccc(Cl)cn3)ccc2F)CS1(=O)=O [Example 34]
Q: COc1cnc(C(=O)Nc2cc(F)c(F)c([C@]3(C)CS(=O)(=O)N(C)C(=N)N3)c2)cn1 [Example 40di]
Endpoint returns the identifier whose efflux ratio at 2 h is numerically larger, either P or Q . Kindly give the label for the entry you pick.
P
(P: 3.1, Q: 2)

a: CN1C(=N)N[C@](C)(c2cc(NC(=O)c3ccc(C(F)(F)F)cn3)ccc2F)CS1(=O)=O [Example 26]
b: COc1cnc(C(=O)Nc2ccc(F)c([C@]3(C)CS(=O)(=O)N(C)C(=N)N3)c2)cn1 [Example 40ai]
Endpoint returns the identifier whose efflux ratio at 2 h is numerically larger, either a or b . Kindly give the label for the entry you pick.
a
(a: 2.9, b: 1.8)

I: CN1C(=N)N[C@](C)(c2c(F)ccc(NC(=O)c3ccc(F)cn3)c2F)CC1=O [Iminopyrimidinone 173]
II: COc1cnc(C(=O)Nc2cc(F)c(F)c([C@]3(C)CC(=O)N(C)C(=N)N3)c2)cn1 [Iminopyrimidinone 40di]
Could you tell me which of I and II has the lower efflux ratio at 2 h reading? Kindly give the label for the entry you pick.
II
(II: 3.2, I: 6.1)

I: Cc1cnc(C(=O)Nc2ccc(F)c([C@]3(C)CS(=O)(=O)N(C)C(=N)N3)c2)cn1 [Example 36]
II: Cc1cnc(C(=O)Nc2ccc(F)c([C@]3(C)CC(=O)N(C)C(=N)N3)c2)cn1 [Iminopyrimidinone 36]
Could you tell me which of I and II has the lower efflux ratio at 2 h reading? Kindly give the label for the entry you pick.
I
(I: 3.3, II: 12.9)

###

Test: Caco-2 bi-directional permeability
Assay type: in vitro ADME
Conditions: human, Caco-2; permeability apical to basolateral; read-out: Caco-2 AP→BL
readout: Papp A→B at 2 h (×10⁻⁶ cm/s)

// known answers, use as guide
Cc1cnc(C(=O)Nc2ccc(F)c([C@]3(C)CC(=O)N(C)C(=N)N3)c2)cn1 = 1.1
CN1C(=N)N[C@](C)(c2cc(-c3cccc(C#N)c3)cs2)CC1=O = 17.4

P: CN1C(=N)N[C@](C)(c2cc(-c3ccc(F)c(C#N)c3)cs2)CC1=O
Q: CN1C(=N)N[C@](C)(c2c(F)ccc(NC(=O)c3ccc(F)cn3)c2F)CC1=O
Endpoint returns the identifier whose Papp A→B at 2 h is numerically larger, either P or Q . Kindly give the label for the entry you pick.
P
